- experimental-system: RNA-dependent DNA polymerase activity of HIV reverse transcriptase (Human immunodeficiency virus type 1 group M subtype B)
- Construct: made in house
- protocol-notes: RNA-dependent DNA polymerase activity assay of HIV reverse transcriptase
- Format: biochemical, HIV-1
- condition-set: 10 μM inhibitor concentration; activity with analog / without analog x 100
Classification field: enter yes for Residual activity (%) Polymerase values not below 80%, no for values below it.

Please review the following examples before continuing.
Cc1ccc2nc3c(c(-c4ccccc4)c2c1)Cn1c-3cc(C(=O)CCC2CCCCC2)c(C)c1=O : no
CCC(O)c1cc2n(c(=O)c1C)Cc1c-2nc2ccccc2c1[Si](C)(C)C(C)(C)C (racemic) : no
CCCCCCc1c2c(nc3ccc(C)cc13)-c1cc(C(O)CC)c(C)c(=O)n1C2 (racemic) : yes

With those in mind, consider the next molecule.
Lookup: Form field: Residual activity (%) Polymerase at least 80%? Entry: CCC(O)c1cc2n(c(=O)c1C)Cc1c-2nc2ccc(C)cc2c1[Si](C)(C)C (centres unmarked)
Found: no

====

- experimental-system: RNase H activity of HIV reverse transcriptase (Human immunodeficiency virus type 1 group M subtype B, UniProt P04585)
- protocol-notes: Fluorescence (FRET)-based RNase H activity assay of HIV reverse transcriptase
- Assay type: biochemical, HIV-1
- Design: final concentration of 2.5 nM of the p51/p66 RT heterodimer in the assay; made in house
- condition-set: 10 μM inhibitor concentration; activity with analog / without analog x 100
# Residual activity (%) RNase H values compiled below
# number only, unit % dropped from output

Consider the reported Residual activity (%) RNase H for these molecules:
CCCCCCc1c2c(nc3ccc(F)cc13)-c1cc(C(O)C(C)(C)C)c(C)c(=O)n1C2 (racemic) : 97
COc1ccc2nc3c(c([Si](C)(C)C)c2c1)Cn1c-3cc(C(O)Cc2ccccc2)c(C)c1=O (racemic) : 70
Cc1ccc2nc3c(c([Si](C)(C)C(C)(C)C)c2c1)Cn1c-3cc(C(O)C(C)(C)C)c(C)c1=O (stereo not shown) : 94

Lookup: Residual activity (%) RNase H lookup needed for COc1ccc2nc3c(c(-c4ccccc4)c2c1)Cn1c-3cc(C(O)CCC2CCCCC2)c(C)c1=O (racemic) , thanks.
Found: 67

Lookup: Ok, now CCC(O)c1cc2n(c(=O)c1C)Cc1c-2nc2ccccc2c1[Si](C)(C)C(C)(C)C (racemic)
Found: 104

Lookup: Ok, now CCC(O)c1cc2n(c(=O)c1C)Cc1c-2nc2ccc(F)cc2c1[Si](C)(C)C (stereo not shown)
Found: 105

Lookup: Ok, now CCC(=O)c1cc2n(c(=O)c1C)Cc1c-2nc2ccc(C)cc2c1[Si](C)(C)C
Found: 109

Lookup: Ok, now COc1ccc2nc3c(c(-c4ccccc4)c2c1)Cn1c-3cc(C(=O)CCC2CCCCC2)c(C)c1=O
Found: 97

====

- experimental-system: RNA-dependent DNA polymerase activity of HIV reverse transcriptase (Human immunodeficiency virus type 1 group M subtype B)
- Construct: made in house
- protocol-notes: RNA-dependent DNA polymerase activity assay of HIV reverse transcriptase
- Assay type: biochemical, HIV-1
- condition-set: 10 μM inhibitor concentration; activity with analog / without analog x 100
endpoint-name: Residual activity (%) Polymerase
Please answer in the form of a number followed by its unit of measurement.

Consider the reported Residual activity (%) Polymerase for these compounds:
Cc1ccc2nc3c(c([Si](C)(C)C(C)(C)C)c2c1)Cn1c-3cc(C(=O)CCC2CCCCC2)c(C)c1=O : 52%
COc1ccc2nc3c(c([Si](C)(C)C)c2c1)Cn1c-3cc(C(O)Cc2ccccc2)c(C)c1=O (racemic) : 48%
Cc1ccc2nc3c(c(-c4ccccc4)c2c1)Cn1c-3cc(C(O)Cc2ccccc2)c(C)c1=O (racemic) : 76%
CCC(=O)c1cc2n(c(=O)c1C)Cc1c-2nc2ccc(OC)cc2c1-c1ccccc1 : 76%
CCC(=O)c1cc2n(c(=O)c1C)Cc1c-2nc2ccc(OC)cc2c1[Si](C)(C)C : 50%

Lookup: Residual activity (%) Polymerase lookup needed for Cc1c(C(=O)C(C)(C)C)cc2n(c1=O)Cc1c-2nc2ccc(F)cc2c1[Si](C)(C)C , thanks.
Found: 63%

Lookup: Ok, now CCCCCCc1c2c(nc3ccc(F)cc13)-c1cc(C(=O)CCC3CCCCC3)c(C)c(=O)n1C2
Found: 80%

Lookup: Ok, now COc1ccc2nc3c(c([Si](C)(C)C(C)(C)C)c2c1)Cn1c-3cc(C(O)C(C)(C)C)c(C)c1=O (racemic)
Found: 47%

Lookup: Ok, now CCC(=O)c1cc2n(c(=O)c1C)Cc1c-2nc2ccccc2c1[Si](C)(C)C(C)(C)C
Found: 43%

Lookup: Ok, now CCCCCCc1c2c(nc3ccc(C)cc13)-c1cc(C(=O)CC)c(C)c(=O)n1C2
Found: 31%

Lookup: Ok, now COc1ccc2nc3c(c(-c4ccccc4)c2c1)Cn1c-3cc(C(O)Cc2ccccc2)c(C)c1=O (racemic)
Found: 61%

Lookup: Ok, now CCCCCCc1c2c(nc3ccc(F)cc13)-c1cc(C(=O)CC)c(C)c(=O)n1C2
Found: 64%

Lookup: Ok, now Cc1ccc2nc3c(c([Si](C)(C)C)c2c1)Cn1c-3cc(C(=O)C(C)(C)C)c(C)c1=O
Found: 76%

FYI, the data here is from patent US20040058948A1.
